- Experimental Protocol: Displacement of [125I]-Ang2 from AT2 receptor in porcine uterine myometrial membranes after 1.5 hrs by gamma scintillation gamma scintillation counting analysis
- Design: species or system Sus scrofa
pKi: −log10 of the molar value.
Assay Endpoint: pKi

# Compound, Assay Endpoint, Recorded Measurement
data = [
    ("CCCCOC(=O)NS(=O)(=O)c1cc2c(cc1-c1ccc(Cn3ccnc3)cc1)CCC2C(C)C (single isomer, unassigned; (+))", "pKi", 8.66),
    ("CCCCOC(=O)NS(=O)(=O)c1ccc2c(c1-c1ccc(Cn3ccnc3)cc1)CCC2C(C)C (single isomer, unassigned; (+))", "pKi", 8.55),
]

1 = CCCCOC(=O)NS(=O)(=O)c1cc2c(cc1-c1cccc(Cn3ccnc3)c1)CCC2C(C)C (single isomer, unassigned; (+))
2 = CCCCOC(=O)NS(=O)(=O)c1ccc2c(c1-c1cccc(Cn3ccnc3)c1)CCC2C(C)C (stereo in doubt; 8b)
3 = CCCCOC(=O)NS(=O)(=O)c1cc2c(cc1-c1ccc(Cn3ccnc3)cc1)CCC2C(C)C (single isomer, unassigned; (-))
Task for the reader: rank each entry by its pKi, from the minimum upward. Hello, could you send the labels back in the order asked? Thank you.
2, 3, 1
(2: 7.27, 3: 8.23, 1: 8.49)
